# target-or-test-system: T1, arrestin2^1-393 (human)
# T1 chain: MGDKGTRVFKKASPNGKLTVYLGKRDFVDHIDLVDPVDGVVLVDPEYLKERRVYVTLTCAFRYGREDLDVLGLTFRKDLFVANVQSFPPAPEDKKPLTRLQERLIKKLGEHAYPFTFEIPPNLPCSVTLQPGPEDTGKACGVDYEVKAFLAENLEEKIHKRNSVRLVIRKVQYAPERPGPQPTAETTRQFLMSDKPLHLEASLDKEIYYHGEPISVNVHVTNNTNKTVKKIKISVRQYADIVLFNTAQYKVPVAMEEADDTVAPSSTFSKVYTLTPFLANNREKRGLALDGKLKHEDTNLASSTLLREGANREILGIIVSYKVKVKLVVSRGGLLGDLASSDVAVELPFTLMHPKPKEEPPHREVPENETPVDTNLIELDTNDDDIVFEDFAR
# assay-explanation: NMR titration
pKd: −log10 of the molar value. No end group written: not given here.
observed-property: pKd

Solved entries (count: 2):
- binder: "APERASSVYTRSTGEQEISVGL (also: phosphopeptide (3P2), sites not given here) [CCR5 3P2 phosphopeptide]"
  pKd: "< 4.00"
- binder: "APERASSVYTRSTGEQEISVGL (also: phosphopeptide (4P), sites not given here) [CCR5 4P phosphopeptide]"
  pKd: "< 4.00"

Which pKd is listed for APERASSVYTRSTGEQEISVGL (also: three-fold phosphorylated, sites not given here) [CCR5 3P1 phosphopeptide] ? < 4.00
